Value source: paper PMC5614969

- experimental-target: β2AR-YFP fusion protein (Homo sapiens)
- Construct: host or cells: U2OS
- Sequence (P07550 whole entry, the tested form may be a part): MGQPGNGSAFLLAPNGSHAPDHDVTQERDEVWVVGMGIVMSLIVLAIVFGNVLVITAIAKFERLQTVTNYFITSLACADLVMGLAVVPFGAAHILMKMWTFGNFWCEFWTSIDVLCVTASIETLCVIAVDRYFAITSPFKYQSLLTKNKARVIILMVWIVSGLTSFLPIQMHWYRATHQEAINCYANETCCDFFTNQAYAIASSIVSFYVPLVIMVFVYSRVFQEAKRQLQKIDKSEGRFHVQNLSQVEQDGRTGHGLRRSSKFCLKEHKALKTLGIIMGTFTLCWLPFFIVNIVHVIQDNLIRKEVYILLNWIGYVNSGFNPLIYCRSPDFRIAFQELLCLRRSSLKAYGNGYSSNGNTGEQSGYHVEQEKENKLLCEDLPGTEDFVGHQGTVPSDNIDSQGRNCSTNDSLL
- measurement-description: Confocal imaging of living U2OS cells expressing β2AR-YFP (staining, internalization, competitive displacement, no-wash)
- Type: cell-based
- study-conditions: U2OS cells expressing β2AR-YFP

>  <molecule>
Cc1c(CCC(=O)NCCOCCOCCNC(=O)CCCCCNC(=O)COc2ccc(/C=C/C3=[N+]4C(=Cc5ccc(-c6cccs6)n5[B-]4(F)F)C=C3)cc2)cccc1CC(C)(C)NCC(O)c1ccc(O)c2c1OCC(=O)N2 (stereo not shown)

>  <Receptor internalization>
Yes

$$$$
>  <molecule>
CC(C)(CCNC(=O)CCOCCOCCNC(=O)COc1ccc(/C=C/C2=[N+]3C(=Cc4ccc(-c5cccs5)n4[B-]3(F)F)C=C2)cc1)NC[C@H](O)COc1cccc2[nH]c3ccccc3c12 [ab118171, reference compound]

>  <Receptor internalization>
Weak

$$$$
>  <molecule>
Cc1c(CCC(=O)NCCCCNC(=O)c2ccc(C(=O)[O-])c(C3=C4C=CC(=[N+](C)C)C=C4C(C)(C)c4cc(N(C)C)ccc43)c2)cccc1CC(C)(C)NCC(O)c1ccc(O)c2c1OCC(=O)N2 (stereo not shown) [BI-4C-610CP (16)]

>  <Receptor internalization>
Yes

$$$$
>  <molecule>
CN(CCC(=O)NCCOCCOCCOCCOCCC(=O)NCCC(C)(C)NCC(O)COc1cccc2[nH]c3ccccc3c12)C(=O)c1c(F)c(F)c(F)c(F)c1C1=c2cc3c4c(c2Oc2c1cc1c5c2CCCN5C(C)(C)C=C1CS(=O)(=O)O)CCC[N+]=4C(C)(C)C=C3CS(=O)(=O)[O-] (stereo not shown)

>  <Receptor internalization>
Weak

$$$$
